MEASURED TARGET: T1, human IL-23R endogenously expressed on DB cells (CRL-2289) (human, UniProt Q5VWK5 24-629)
T1 sequence (looked up): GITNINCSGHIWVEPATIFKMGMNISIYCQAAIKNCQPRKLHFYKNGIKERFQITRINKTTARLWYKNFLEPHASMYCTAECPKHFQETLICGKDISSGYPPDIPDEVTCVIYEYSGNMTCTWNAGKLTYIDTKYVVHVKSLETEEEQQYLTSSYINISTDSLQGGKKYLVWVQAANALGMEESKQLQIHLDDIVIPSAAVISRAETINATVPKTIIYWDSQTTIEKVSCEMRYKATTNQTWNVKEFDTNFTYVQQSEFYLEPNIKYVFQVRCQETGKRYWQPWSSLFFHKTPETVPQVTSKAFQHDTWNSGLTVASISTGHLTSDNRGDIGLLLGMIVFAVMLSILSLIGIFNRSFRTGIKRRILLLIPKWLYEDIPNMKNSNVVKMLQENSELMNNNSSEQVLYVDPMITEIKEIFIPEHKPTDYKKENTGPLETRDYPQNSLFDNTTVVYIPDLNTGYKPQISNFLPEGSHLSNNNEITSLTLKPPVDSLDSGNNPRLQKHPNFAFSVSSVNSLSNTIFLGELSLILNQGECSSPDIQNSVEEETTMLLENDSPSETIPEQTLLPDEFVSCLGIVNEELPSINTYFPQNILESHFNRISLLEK
MEASUREMENT PROTOCOL: cell-based or functional assay
*1 amine or outer side, *2 acyl side, *3 side chain or, on linkers, in order; H or OH if unused. Bridges are numbered along the chain shown (N, C = ends). Primed or numbered codes have the meaning given here. [ ]: non-standard residue; d: D form. 1,3‑dibromopropan‑2‑one = linker (CAS 816-39-7) joining two Cys as 1,3-dithio-propan-2-one bridge -SCH2C(=O)CH2S-; 1,3‑dibromopropan‑2‑one(3) = linker giving 1,3-dithio-propan-2-one bridge -SCH2C(=O)CH2S- between Cys; 4‑Aminomethyl‑phenylacetyl″ = N-terminal cap residue, O=C(Cc1ccc(CN[*:1])cc1)[*:2]; 2Nal = N[C@@H](Cc1ccc2ccccc2c1)C(=O)O; AEF = NCCOc1ccc(C[C@H](N)C(=O)O)cc1; 3Pal = N[C@@H](Cc1cccnc1)C(=O)O; αMeL = CC(C)C[C@](C)(N)C(=O)O; Dab = NCC[C@H](N)C(=O)O
VALUE KIND: IC50 (pSTAT3)

>  <BINDER>
[4‑Aminomethyl‑phenylacetyl″]S[Dab]WQE[AEF][2Nal][αMeL]E[Dab][3Pal]-NH2 (lactam N-10, 3-6; SMILES CC(C)C[C@]1(C)NC(=O)[C@H](Cc2ccc3ccccc3c2)NC(=O)[C@H](Cc2ccc(OCCN)cc2)NC(=O)[C@@H]2CCC(=O)NCC[C@H](NC(=O)[C@H](CO)NC(=O)Cc3ccc(cc3)CNC(=O)CC[C@@H](C(=O)N[C@@H](CCN)C(=O)N[C@@H](Cc3cccnc3)C(N)=O)NC1=O)C(=O)N[C@@H](Cc1c[nH]c3ccccc13)C(=O)N[C@@H](CCC(N)=O)C(=O)N2) [Compound 123]

>  <MEAS VALUE>
25.3 pM

$$$$
>  <BINDER>
[4‑Aminomethyl‑phenylacetyl″]SCWQC[AEF][2Nal][αMeL]E[dH]-NH2 (lactam N-10; linker 3-6 via 1,3‑dibromopropan‑2‑one(3)) [Compound 117]

>  <MEAS VALUE>
11.3 nM

$$$$

Lab note: next binder to report on.
Need IC50 (pSTAT3), item cyclo(DSCWQCWWLR) (linker 3-6 via 1,3‑dibromopropan‑2‑one) [Compound 6]
> 1 µM
